biological target: LRRK2(G2019S mutation, GST-LRRK2(amino acids 970-2527)) (Homo sapiens, UniProt Q5S007, G2019S); construct: GST-LRRK2(amino acids 970-2527); GST (N); purchased Life Technologies Corporation; assay: LRRK2 Km ATP LanthaScreen Assay; format: biochemical; conditions: Km ATP LanthaScreen Assay; LRRK2 G2019S; mean IC50 values; read-out: LRRK2 IC50
Sequence (Q5S007 970-2527 G2019S): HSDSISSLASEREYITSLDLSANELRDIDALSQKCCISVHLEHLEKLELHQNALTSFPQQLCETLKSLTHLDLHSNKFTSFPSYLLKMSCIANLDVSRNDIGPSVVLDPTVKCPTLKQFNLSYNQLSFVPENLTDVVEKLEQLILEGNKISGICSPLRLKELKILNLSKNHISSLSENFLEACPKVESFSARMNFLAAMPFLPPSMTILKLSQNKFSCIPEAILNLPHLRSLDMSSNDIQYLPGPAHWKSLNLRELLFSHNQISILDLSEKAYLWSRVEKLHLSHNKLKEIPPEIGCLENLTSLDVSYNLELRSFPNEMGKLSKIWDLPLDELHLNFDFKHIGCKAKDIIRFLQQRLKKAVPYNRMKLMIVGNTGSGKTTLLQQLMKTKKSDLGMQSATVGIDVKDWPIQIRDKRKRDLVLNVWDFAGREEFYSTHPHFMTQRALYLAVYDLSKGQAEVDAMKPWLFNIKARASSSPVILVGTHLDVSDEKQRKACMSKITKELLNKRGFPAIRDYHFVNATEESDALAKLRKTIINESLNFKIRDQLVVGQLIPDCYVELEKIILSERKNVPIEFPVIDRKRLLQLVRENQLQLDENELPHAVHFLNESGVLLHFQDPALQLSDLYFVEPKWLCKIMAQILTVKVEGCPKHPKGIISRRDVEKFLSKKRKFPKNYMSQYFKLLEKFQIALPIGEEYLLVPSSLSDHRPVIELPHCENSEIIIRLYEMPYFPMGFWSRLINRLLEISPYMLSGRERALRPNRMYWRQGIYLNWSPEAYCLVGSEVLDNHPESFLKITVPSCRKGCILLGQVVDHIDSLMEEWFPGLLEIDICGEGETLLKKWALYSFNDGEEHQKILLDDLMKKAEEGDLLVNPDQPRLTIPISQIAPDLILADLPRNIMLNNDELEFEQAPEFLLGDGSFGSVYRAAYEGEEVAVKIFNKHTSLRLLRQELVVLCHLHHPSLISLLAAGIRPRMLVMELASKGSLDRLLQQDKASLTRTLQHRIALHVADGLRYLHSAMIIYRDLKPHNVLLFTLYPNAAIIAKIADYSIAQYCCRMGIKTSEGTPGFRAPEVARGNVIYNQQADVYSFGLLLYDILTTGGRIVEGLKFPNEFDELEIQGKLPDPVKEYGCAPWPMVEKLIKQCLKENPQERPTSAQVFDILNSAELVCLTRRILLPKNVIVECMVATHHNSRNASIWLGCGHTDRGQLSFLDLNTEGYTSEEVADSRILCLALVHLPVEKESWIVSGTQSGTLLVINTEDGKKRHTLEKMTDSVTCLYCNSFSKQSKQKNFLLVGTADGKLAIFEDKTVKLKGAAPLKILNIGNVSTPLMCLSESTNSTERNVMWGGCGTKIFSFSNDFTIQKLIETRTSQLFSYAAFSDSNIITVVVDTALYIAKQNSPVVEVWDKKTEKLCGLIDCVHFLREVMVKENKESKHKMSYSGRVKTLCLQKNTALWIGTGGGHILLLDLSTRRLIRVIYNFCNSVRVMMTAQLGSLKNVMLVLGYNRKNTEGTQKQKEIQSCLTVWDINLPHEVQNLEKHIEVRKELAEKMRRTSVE
pIC50: −log10 of the molar value.
Everything with pIC50 lower than 8 is -1; everything else, including exactly 8, is 1.

Is it the case that c1ccc(N2CCN(c3cc(-c4n[nH]c5ccccc45)ccn3)CC2)cc1 has pIC50 reaching or exceeding 8?
-1

Is it the case that c1ccc2c(-c3ccnc(N4Cc5cncnc5C4)c3)n[nH]c2c1 has pIC50 reaching or exceeding 8?
-1

Is it the case that CC(C)Oc1ccc2[nH]nc(-c3ccnc(NCC4CC4)c3)c2c1 has pIC50 reaching or exceeding 8?
1

Is it the case that CN(Cc1ccc2[nH]nc(-c3ccnc(N4CCOCC4)c3)c2c1)C1CCCC1 has pIC50 reaching or exceeding 8?
-1

Is it the case that [2H]C1([2H])OC([2H])([2H])C([2H])([2H])N(c2cc(-c3n[nH]c4ccc(OC(C)C)cc34)ccn2)C1([2H])[2H] has pIC50 reaching or exceeding 8?
1

Is it the case that OCCNc1cc(-c2n[nH]c3ccccc23)ccn1 has pIC50 reaching or exceeding 8?
-1

Is it the case that CO[C@H]1CCN(c2cc(-c3n[nH]c4ccc(OC(C)C)cc34)ccn2)C1 has pIC50 reaching or exceeding 8?
1

Is it the case that CC(C)CCC(=O)Nc1cc(-c2n[nH]c3ccc(OC(C)C)cc23)ccn1 has pIC50 reaching or exceeding 8?
-1

Is it the case that FC(F)=CCCOc1ccc2[nH]nc(-c3ccnc(N4CCOCC4)c3)c2c1 has pIC50 reaching or exceeding 8?
1

Is it the case that CCOc1ccc2[nH]nc(-c3ccnc(N4CCN(C)C(=O)C4)c3)c2c1 has pIC50 reaching or exceeding 8?
1

Is it the case that CCOc1ccc2[nH]nc(-c3ccnc(N4CC(C#N)(c5ccccc5)C4)c3)c2c1 has pIC50 reaching or exceeding 8?
-1

Is it the case that CCOc1ccc2[nH]nc(-c3ccnc(N4C5CCCC4CC5)c3)c2c1 has pIC50 reaching or exceeding 8?
-1

Is it the case that CC(C)Oc1ccc2[nH]nc(-c3ccnc(NC(=O)c4cnc(C(C)C)nc4)c3)c2c1 has pIC50 reaching or exceeding 8?
-1

Is it the case that CN(CC1CCC(=O)N1)c1cc(-c2n[nH]c3ccccc23)ccn1 (centres unmarked) has pIC50 reaching or exceeding 8?
-1

Is it the case that c1ccc(COc2ccnc(-c3ccc4[nH]nc(-c5ccnc(N6CCOCC6)c5)c4c3)n2)cc1 has pIC50 reaching or exceeding 8?
-1

Is it the case that [2H]C1([2H])OC([2H])([2H])C([2H])([2H])N(c2cc(-c3n[nH]c4ccccc34)ccn2)C1([2H])[2H] has pIC50 reaching or exceeding 8?
-1

###

biological target: LRRK2(G2019S mutation, GST-LRRK2(amino acids 970-2527)) (Homo sapiens, UniProt Q5S007, G2019S); construct: GST-LRRK2(amino acids 970-2527); GST (N); purchased Life Technologies Corporation; experiment: LRRK2 Km ATP LanthaScreen Assay; format: biochemical; conditions: Km ATP LanthaScreen Assay; LRRK2 G2019S; mean IC50 values; Examples 185-215; read-out: LRRK2 IC5)
ASSAY ENDPOINT: IC50 (nM)
Give the number; nM is assumed, so skip it.

Documented IC50 of CC(C)Oc1ccc2[nH]nc(-c3ccnc(N4CCN(c5ncccn5)CC4)c3)c2c1 [Example 204] : 7.9

Documented IC50 of CC(C)Oc1ccc2[nH]nc(-c3ccnc(N4CCCN(S(C)(=O)=O)CC4)c3)c2c1 [Example 189] : 22.4

Documented IC50 of CC(C)Oc1ccc2[nH]nc(-c3ccnc(N4CCN(C5CC5)CC4)c3)c2c1 [Example 210] : 7.4

Documented IC50 of CC(C)Oc1ccc2[nH]nc(-c3ccnc(N4CCC(n5cncn5)CC4)c3)c2c1 [Example 187] : 4

###

biological target: LRRK2(G2019S mutation, GST-LRRK2(amino acids 970-2527)) (Homo sapiens, UniProt Q5S007, G2019S); construct: GST-LRRK2(amino acids 970-2527); GST (N); purchased Life Technologies Corporation; assay: LRRK2 Km ATP LanthaScreen Assay; format: biochemical; details: Km ATP LanthaScreen; mean IC50 of several tests; read-out: LRRK2 IC50
Task for the reader: assign each of the following molecules its reported IC50.

Documented IC50 of Cn1cncc1-c1ccc2[nH]nc(-c3ccnc(N4CCOCC4)c3)c2c1 : < 0.6 nM

Documented IC50 of CCOc1ccc2[nH]nc(-c3ccnc(N4CCN(S(C)(=O)=O)CC4)c3)c2c1 : < 0.6 nM

Documented IC50 of Cn1cc(-c2ccc3[nH]nc(-c4ccnc(N5CC(O)C5)c4)c3c2)cn1 : < 0.6 nM

###

molecular target: LRRK2(G2019S mutation, GST-LRRK2(amino acids 970-2527)) (Homo sapiens, UniProt Q5S007, G2019S); construct: GST-LRRK2(amino acids 970-2527); GST (N); purchased Life Technologies Corporation; experiment: LRRK2 Km ATP LanthaScreen Assay; type: biochemical; settings: Km ATP LanthaScreen Assay; LRRK2 G2019S; mean IC50 values; read-out: LRRK2 IC50
pIC50: −log10 of the molar value.
Everything with pIC50 lower than 7 is Not fulfilled; everything else, including exactly 7, is Fulfilled.

Is it the case that c1ccc2c(-c3ccnc(N4CC5CCC(C4)O5)c3)n[nH]c2c1 [Example 402] has pIC50 reaching or exceeding 7?
Fulfilled

Is it the case that CN(C)C(=O)CN1CCN(c2cc(-c3n[nH]c4ccccc34)ccn2)CC1 [Example 65] has pIC50 reaching or exceeding 7?
Fulfilled

Is it the case that c1ccc2c(-c3ccnc(N4CCN(Cc5ccncc5)CC4)c3)n[nH]c2c1 [Example 19] has pIC50 reaching or exceeding 7?
Fulfilled

Is it the case that CN(C)CC1CN(c2cc(-c3n[nH]c4ccccc34)ccn2)CCO1 (stereo not shown) [Example 43] has pIC50 reaching or exceeding 7?
Fulfilled

Is it the case that c1ccc2c(-c3ccnc(N4CCN(CCCN5CCOCC5)CC4)c3)n[nH]c2c1 [Example 53] has pIC50 reaching or exceeding 7?
Fulfilled

Is it the case that CC(C)Oc1ccc2[nH]nc(-c3ccnc(NC(=O)C4CC(=O)C4)c3)c2c1 [Example 153] has pIC50 reaching or exceeding 7?
Fulfilled

Is it the case that c1ccc2c(-c3ccnc(N4CCC(c5ccncc5)CC4)c3)n[nH]c2c1 [Example 16] has pIC50 reaching or exceeding 7?
Not fulfilled

Is it the case that CCN(CC)CCOc1ccc2[nH]nc(-c3ccnc(N4CCOCC4)c3)c2c1 [Example 80] has pIC50 reaching or exceeding 7?
Fulfilled

Is it the case that CC(C)Oc1ccc2[nH]nc(-c3ccnc(NC(=O)c4ccccn4)c3)c2c1 [Example 144] has pIC50 reaching or exceeding 7?
Fulfilled

Is it the case that CC(C)Oc1ccc2[nH]nc(-c3ccnc(N4CC(n5cnnc5)C4)c3)c2c1 [Example 180] has pIC50 reaching or exceeding 7?
Fulfilled

Is it the case that CO[C@@H]1CCN(c2cc(-c3n[nH]c4ccc(OC(F)(F)F)cc34)ccn2)C1 [Example 250] has pIC50 reaching or exceeding 7?
Not fulfilled

###

Task for the reader: assign each of the following molecules its reported pIC50.
molecular target: LRRK2(G2019S mutation, GST-LRRK2(amino acids 970-2527)) (Homo sapiens, UniProt Q5S007, G2019S); construct: GST-LRRK2(amino acids 970-2527); GST (N); purchased Life Technologies Corporation; assay: LRRK2 Km ATP LanthaScreen Assay; type: biochemical; settings: Km ATP LanthaScreen; mean IC50 of several tests; read-out: LRRK2 IC50
Remember the convention: pIC50 equals -log10 of concentration in molar.

Documented pIC50 of FC1CN(c2cc(-c3n[nH]c4ccc(-c5cccnc5)cc34)ccn2)C1 [Example 306] : 8.54

Documented pIC50 of c1cnnc(-c2ccc3[nH]nc(-c4ccnc(N5CCOCC5)c4)c3c2)c1 [Example 326] : 8.19

Documented pIC50 of Cc1ncc(-c2cc3c(-c4ccnc(N5CC(F)C5)c4)n[nH]c3cc2F)n1C [Example 310] : 7.02

Documented pIC50 of c1ccc2c(-c3ccnc(N4CCNCC4)c3)n[nH]c2c1 [Example 75] : 7.10

Documented pIC50 of Cn1cc(-c2ccc3[nH]nc(-c4ccnc(N5CCN(c6ccncn6)CC5)c4)c3c2)cn1 [Example 277] : 8.68

Documented pIC50 of O=S(=O)(c1ccc2[nH]nc(-c3ccnc(N4CCOCC4)c3)c2c1)C1CC1 [Example 370] : 7.74
